These measurements were taken from ChEMBL document CHEMBL4725280.

- study.system: GIM-1 protein (Pseudomonas aeruginosa) (UniProt Q704V1)
- Sequence (Q704V1 as listed by the source): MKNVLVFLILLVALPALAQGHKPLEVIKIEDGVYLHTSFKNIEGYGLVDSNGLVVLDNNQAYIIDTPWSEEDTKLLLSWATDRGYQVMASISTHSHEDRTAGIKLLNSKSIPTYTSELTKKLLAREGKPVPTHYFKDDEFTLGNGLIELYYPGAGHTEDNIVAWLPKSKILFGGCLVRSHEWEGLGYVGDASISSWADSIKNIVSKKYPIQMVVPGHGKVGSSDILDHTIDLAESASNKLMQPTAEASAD
- assay.details: Inhibition of Pseudomonas aeruginosa beta lactamase GIM-1 transfected in negative Escherichia coli SNO3 cells assessed as substrate hydrolysis using nitrocefin as substrate at 250 uM incubated for 20 mins measured every 1 mins for 3 hrs by cell-based microplate spectrophotometry analysis relative to control
Activity calls are given as the source filed them. The calls are words filed in the database; no cut-off is given here.
measured.parameter: inhibition

Cc1ccc(S(=O)(=O)NCc2[nH]nnc2CNC23CC4CC(CC(C4)C2)C3)cc1: inactive
O=S(=O)(NCc1[nH]nnc1CNC1CCCCC1)c1ccc(I)cc1: 3%
Cc1ccc(S(=O)(=O)NCc2[nH]nnc2CNC2CCCCC2)cc1: 2.3%
O=S(=O)(NCc1[nH]nnc1CNC12CC3CC(CC(C3)C1)C2)c1ccc(I)cc1: 22%
O=S(=O)(NCc1[nH]nnc1CNC1CCCCC1)c1cc(Cl)ccc1Cl: 7%

For the next question, use this compound.
Input: Give its inhibition value. Item: `NCc1nn[nH]c1CNS(=O)(=O)c1ccccc1`
Output: inactive

---

- study.system: GIM-1 protein (Pseudomonas aeruginosa)
- assay.details: Inhibition of beta lactamase GIM-1 in Pseudomonas aeruginosa in presence of nitrocefin as reporter substrate measured after 5 mins by microplate spectrophotometry analysis
measured.parameter: IC50

Cc1ccc(S(=O)(=O)NCc2[nH]nnc2CNC2CCCCC2)cc1: Not Active
O=S(=O)(NCc1[nH]nnc1CNC1CCCCC1)c1cc(Cl)ccc1Cl: Not Active
NCc1nn[nH]c1CNS(=O)(=O)c1ccccc1: Not Active

---

- study.system: GIM-1 protein (Pseudomonas aeruginosa) (UniProt Q704V1)
- assay.details: Inhibition of Pseudomonas aeruginosa beta lactamase GIM-1 transfected in negative Escherichia coli SNO3 cells assessed as substrate hydrolysis using nitrocefin as substrate at 250 uM incubated for 20 mins measured every 1 mins for 3 hrs by cell-based microplate spectrophotometry analysis relative to control
Exercise: for every item that follows, state its recorded inhibition.
Write the number in % without appending the unit.

Input: // fetch GIM-1 protein (Pseudomonas aeruginosa) (UniProt Q704V1) inhibition for `COc1ccc(CSCc2nn[nH]c2CNS(=O)(=O)c2ccc(I)cc2)cc1`
Output: 33

Input: // fetch GIM-1 protein (Pseudomonas aeruginosa) (UniProt Q704V1) inhibition for `O=S(=O)(NCc1[nH]nnc1CNC(c1ccccc1)(c1ccccc1)c1ccccc1)c1ccc(I)cc1`
Output: 3

Input: // fetch GIM-1 protein (Pseudomonas aeruginosa) (UniProt Q704V1) inhibition for `COCc1nn[nH]c1CNS(=O)(=O)c1ccc(I)cc1`
Output: 11

Input: // fetch GIM-1 protein (Pseudomonas aeruginosa) (UniProt Q704V1) inhibition for `O=S(=O)(NCc1[nH]nnc1CNC12CC3CC(CC(C3)C1)C2)c1cc(Cl)ccc1Cl`
Output: 21

Input: // fetch GIM-1 protein (Pseudomonas aeruginosa) (UniProt Q704V1) inhibition for `CC(C)OCc1nn[nH]c1CNS(=O)(=O)c1ccc(I)cc1`
Output: 11

Input: // fetch GIM-1 protein (Pseudomonas aeruginosa) (UniProt Q704V1) inhibition for `Cc1ccc(S(=O)(=O)NCc2[nH]nnc2COC(C)(C)C)cc1`
Output: 4.5

---

- study.system: GIM-1 protein (Pseudomonas aeruginosa, UniProt Q704V1)
- Sequence (Q704V1 whole entry): as the sequence (Q704V1 as listed by the source) above
- assay.details: Inhibition of beta lactamase GIM-1 in Pseudomonas aeruginosa in presence of nitrocefin as reporter substrate measured after 5 mins by microplate spectrophotometry analysis
- condition.set: read-out: IC50
pIC50: −log10 of the molar value.
Quick rule: pIC50 of at least 4 means T, below that means F.

Input: Would you say `CC(=O)OCc1nn[nH]c1CNS(=O)(=O)c1ccc(I)cc1` shows pIC50 at minimum 4?
Output: T

Input: Would you say `O=S(=O)(NCc1[nH]nnc1CNC12CC3CC(CC(C3)C1)C2)c1ccc(I)cc1` shows pIC50 at minimum 4?
Output: T

Input: Would you say `O=S(=O)(NCc1[nH]nnc1CNC1CCCCC1)c1ccc(I)cc1` shows pIC50 at minimum 4?
Output: T

Input: Would you say `O=S(=O)(NCc1[nH]nnc1CNC(c1ccccc1)(c1ccccc1)c1ccccc1)c1ccc(I)cc1` shows pIC50 at minimum 4?
Output: F

Input: Would you say `COc1ccc(CSCc2nn[nH]c2CNS(=O)(=O)c2ccc(I)cc2)cc1` shows pIC50 at minimum 4?
Output: F

Input: Would you say `CC(C)OCc1nn[nH]c1CNS(=O)(=O)c1ccc(I)cc1` shows pIC50 at minimum 4?
Output: F

Input: Would you say `COCc1nn[nH]c1CNS(=O)(=O)c1ccc(I)cc1` shows pIC50 at minimum 4?
Output: F
